target: E1HD (E1 helicase domain) (bovine papillomavirus type 1 (BPV-1), UniProt P03116 299-605); test: EMSA
Sequence (P03116 299-605): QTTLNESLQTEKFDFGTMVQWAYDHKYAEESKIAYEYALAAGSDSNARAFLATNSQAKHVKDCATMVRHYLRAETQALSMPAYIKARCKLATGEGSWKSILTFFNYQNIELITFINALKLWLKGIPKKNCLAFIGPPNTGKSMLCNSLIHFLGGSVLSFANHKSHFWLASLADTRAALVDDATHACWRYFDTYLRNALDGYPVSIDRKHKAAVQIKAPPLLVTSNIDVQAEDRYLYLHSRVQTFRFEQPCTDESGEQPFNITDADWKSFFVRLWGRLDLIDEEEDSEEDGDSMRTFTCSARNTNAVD
Endpoint: pKd
Give bare numbers, as −log10 of the molar value.

So for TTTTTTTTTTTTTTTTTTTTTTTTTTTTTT (ssDNA) [T30] , the logged pKd turned out to be 6.53

Hello, the source for this data is paper PMC1557793, in case you need it.
